Entry source: ChEMBL document CHEMBL3885881

Species on record: Rattus norvegicus
Experiment: DrugMatrix - Regimen: Daily Repeat
Format: toxicity, organism-based, Sprague-Dawley
Set-up: regimen Daily Repeat, gender Male, age 6-8 weeks
Details: in vivo, po, 0 mg/kg, 72 h, tissue Plasma, route oral GAVAGE, dose level Control, time 3 day, vehicle 100 % WATER
Listed here are compounds together with their documented ALBUMIN.
Please format your answer as a value with the unit trailing.

{"compound": "Nc1ccn([C@@H]2CS[C@H](CO)O2)c(=O)n1", "ALBUMIN": "4.08 G/DL"}
{"compound": "COC(=O)C1=C(C)NC(C)=C(C(=O)OCC(C)C)C1c1ccccc1[N+](=O)[O-] (stereo not given)", "ALBUMIN": "4.07 G/DL"}
{"compound": "CC(C)C[C@H](NC(=O)[C@@H](O)[C@H](N)Cc1ccccc1)C(=O)O", "ALBUMIN": "4.18 G/DL"}
{"compound": "CC(C)(C)c1ccc(C(=O)CCCN2CCC(OC(c3ccccc3)c3ccccc3)CC2)cc1", "ALBUMIN": "3.78 G/DL"}

# input for lookup
In: Can you share its ALBUMIN? I mean this compound: ClC(Cl)Cl [CHLOROFORM]
Out: 4.1 G/DL

* * *

Species on record: Rattus norvegicus
Assay: DrugMatrix - Regimen: Daily Repeat
Format: toxicity, organism-based, Sprague-Dawley
Design: regimen Daily Repeat, gender Male, age 6-8 weeks
Settings: in vivo, po, 0 mg/kg, 72 h, tissue Blood, route oral GAVAGE, dose level Control, time 3 day, vehicle .5 % CMC
# binarize MONOCYTE: threshold 1% inclusive, high side Fulfilled, low side Not fulfilled

Look over these answered cases.
{"molecule": "CNC(=C[N+](=O)[O-])NCCSCc1ccc(CN(C)C)o1", "class": "Fulfilled"}
{"molecule": "O=[N+]([O-])c1ccccc1", "class": "Fulfilled"}
{"molecule": "CN1CCC(=C2c3ccccc3C=Cc3ccccc32)CC1", "class": "Fulfilled"}

In: API: above_or_equal(metric=MONOCYTE, cutoff=1%) for item C[C@](O)(CS(=O)(=O)c1ccc(F)cc1)C(=O)Nc1ccc(C#N)c(C(F)(F)F)c1 [(R)-BICALUTAMIDE]
Out: Fulfilled

In: Would you kindly repeat that for `C[C@]1(Cn2ccnn2)[C@H](C(=O)O)N2C(=O)C[C@H]2S1(=O)=O` ?
Out: Not fulfilled

In: # repeat for `C#C[C@]1(O)CC[C@H]2[C@@H]3CCc4cc(OC)ccc4[C@H]3CC[C@@]21C`
Out: Fulfilled

In: Lookup CC(C)[C@H]1CC[C@H](C(=O)N[C@H](Cc2ccccc2)C(=O)O)CC1 [NATEGLINIDE]
Out: Not fulfilled

In: And what about the molecule `Clc1ccc2c(c1)C(N1CCNCC1)=Nc1ccccc1O2` ?
Out: Fulfilled

In: Try this molecule next: `Cc1onc(-c2ccccc2)c1-c1ccc(S(N)(=O)=O)cc1`
Out: Fulfilled

In: Now try `CO[C@H]1/C=C/O[C@@]2(C)Oc3c(C)c(O)c4c(c3C2=O)C2=NC3(CCN(CC(C)C)CC3)NC2=C(NC(=O)/C(C)=C\C=C\[C@H](C)[C@H](O)[C@@H](C)[C@@H](O)[C@@H](C)[C@H](OC(C)=O)[C@@H]1C)C4=O` .
Out: Fulfilled

In: Please give the result for N=C(N)NC(=O)c1nc(Cl)c(N)nc1N [AMILORIDE] too.
Out: Fulfilled

In: Consider next the molecule O=C1CCC(N2C(=O)c3ccccc3C2=O)C(=O)N1 (stereo not given) [THALIDOMIDE] in the same way.
Out: Fulfilled

In: Same question, CN1C(=O)COc2c(C(=O)NC3CN4CCC3CC4)cc(Cl)cc21 (stereo not given) this time
Out: Not fulfilled

In: And for `CC[C@@H](CO)NCCN[C@@H](CC)CO` ?
Out: Fulfilled

In: Next record, please: OC(CCN1CCCCC1)(c1ccccc1)C1CCCCC1 (stereo not given)
Out: Not fulfilled
